These data points were gathered from ChEMBL document CHEMBL1201862.

Provide the recorded IC50 for the entries that follow.
target of assay: Prothrombin (Bos taurus)
protocol summary: thrombin inhibition, dose response, biochemical, fluorescence polarization, uHTS hits (AID 602369)
Format: functional
The source made the active and inactive calls. No stated cut-off is given here; in the data, actives have a measured IC50 and inactives only a lower limit.

A selection of reference data follows.
# chemical string, IC50
rows = [
    ("COc1ccc(Cl)cc1C(=O)Nc1cccc(-c2ccc3nncn3n2)c1", "30.2 µM (active)"),
    ("Cc1ccsc1/C=N/n1c(S)nnc1-c1cc(-c2ccccc2)[nH]n1", "77.2 µM (active)"),
    ("C=CCn1cc(/C=N/NC(=O)COc2cccc3cccnc23)c2ccccc21", "39 µM (active)"),
]

Task: Consider the molecule C/N=c1\scc(-c2cc(OC)ccc2OC)n1/N=C/c1c(C)[nH]c2ccccc12 . State its measured IC50.
Output: 21.1 µM (active)
